Recorded viability at 24 h, 10 ug/mL by entry
assay: Antiproliferative activity against human Hep2 cells assessed as cell survival fraction at 10 ug/mL after 24 hrs by MTT assay; assay type: cell-based; details: HEp-2 cells, read-out: Survival
Readout label: viability at 24 h, 10 ug/mL

>>> assay_value("C/C(=N\\Nc1nc(-c2ccc(I)cc2)cs1)c1ccncc1")
"35%"
>>> assay_value("CCC(CC)=NNc1nc(-c2ccc(I)cc2)cs1")
"90%"
>>> assay_value("Clc1ccccc1C(c1ccccc1)(c1ccccc1)n1ccnc1 [CLOTRIMAZOLE]")
"70%"
>>> assay_value("CC1CCC/C1=N\\Nc1nc(-c2ccc(I)cc2)cs1 (stereo not drawn)")
"36%"
>>> assay_value("Ic1ccc(-c2csc(N/N=C/c3cccc4ccccc34)n2)cc1")
"80%"
>>> assay_value("CCC/C(C)=N/Nc1nc(-c2ccc(I)cc2)cs1")
"68%"
>>> assay_value("CC1CC/C(=N\\Nc2nc(-c3ccc(I)cc3)cs2)C1 (stereo not drawn)")
"90%"
>>> assay_value("CCCCC/C(C)=N/Nc1nc(-c2ccc(I)cc2)cs1")
"89%"
